Biological target: UniProt:P04150
Sequence (P04150 whole entry): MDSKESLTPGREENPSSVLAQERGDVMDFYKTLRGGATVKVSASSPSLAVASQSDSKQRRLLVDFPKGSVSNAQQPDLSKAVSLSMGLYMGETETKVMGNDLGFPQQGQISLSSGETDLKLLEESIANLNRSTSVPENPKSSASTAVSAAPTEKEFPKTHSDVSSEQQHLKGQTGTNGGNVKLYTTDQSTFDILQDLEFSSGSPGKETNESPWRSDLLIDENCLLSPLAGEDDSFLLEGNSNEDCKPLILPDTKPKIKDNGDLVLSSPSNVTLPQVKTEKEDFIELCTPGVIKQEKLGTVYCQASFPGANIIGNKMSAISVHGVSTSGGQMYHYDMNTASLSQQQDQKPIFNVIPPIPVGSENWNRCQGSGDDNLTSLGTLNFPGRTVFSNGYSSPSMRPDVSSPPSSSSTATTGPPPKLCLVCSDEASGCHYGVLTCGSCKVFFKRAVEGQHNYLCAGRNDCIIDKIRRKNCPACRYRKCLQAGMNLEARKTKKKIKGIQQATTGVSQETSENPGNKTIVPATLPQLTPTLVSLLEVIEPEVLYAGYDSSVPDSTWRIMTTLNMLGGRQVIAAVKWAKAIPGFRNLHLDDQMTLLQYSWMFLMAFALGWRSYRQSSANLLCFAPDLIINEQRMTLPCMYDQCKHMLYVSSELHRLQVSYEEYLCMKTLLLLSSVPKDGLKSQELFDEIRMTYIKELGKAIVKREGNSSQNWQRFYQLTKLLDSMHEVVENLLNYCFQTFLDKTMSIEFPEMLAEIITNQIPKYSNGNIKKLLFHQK
Assay: Glucocorticoid binding assay ([3H]dexamethasone displacement, GR lysate)
Details: baculovirus-expressed GR lysate from Sf21 cells; 2-4 nM [3H]dexamethasone; 16 hours at 4° C.; Cheng-Prusoff from IC50
ENDPOINT_NAME: Ki (nM)

I. Cc1cc(-c2ccc(F)c3c(C)c[nH]c23)c(Cl)c2c1NC(C)(C)CC2C (racemic)
II. Cc1cc(-c2cccc(C(F)(F)F)c2F)c(Cl)c2c1NC(C)(C)CC2C (racemic)
III. Cc1cc(-c2cccc3ccccc23)c(Cl)c2c1NC(C)(C)CC2C (racemic)
Task item: Lab note: Ki ranking, ascending, for the listed molecules. Answer by listing the labels in the order asked for.
Reply: I, III, II
(I: 2 nM, III: 8.8 nM, II: 81 nM)

----------
Biological target: human mineralocorticoid Receptor-α (MRα) (Homo sapiens)
Construct: made in house; host or cells: Sf21 insect cells (baculovirus), as described for GR
Sequence (P08235 1-984): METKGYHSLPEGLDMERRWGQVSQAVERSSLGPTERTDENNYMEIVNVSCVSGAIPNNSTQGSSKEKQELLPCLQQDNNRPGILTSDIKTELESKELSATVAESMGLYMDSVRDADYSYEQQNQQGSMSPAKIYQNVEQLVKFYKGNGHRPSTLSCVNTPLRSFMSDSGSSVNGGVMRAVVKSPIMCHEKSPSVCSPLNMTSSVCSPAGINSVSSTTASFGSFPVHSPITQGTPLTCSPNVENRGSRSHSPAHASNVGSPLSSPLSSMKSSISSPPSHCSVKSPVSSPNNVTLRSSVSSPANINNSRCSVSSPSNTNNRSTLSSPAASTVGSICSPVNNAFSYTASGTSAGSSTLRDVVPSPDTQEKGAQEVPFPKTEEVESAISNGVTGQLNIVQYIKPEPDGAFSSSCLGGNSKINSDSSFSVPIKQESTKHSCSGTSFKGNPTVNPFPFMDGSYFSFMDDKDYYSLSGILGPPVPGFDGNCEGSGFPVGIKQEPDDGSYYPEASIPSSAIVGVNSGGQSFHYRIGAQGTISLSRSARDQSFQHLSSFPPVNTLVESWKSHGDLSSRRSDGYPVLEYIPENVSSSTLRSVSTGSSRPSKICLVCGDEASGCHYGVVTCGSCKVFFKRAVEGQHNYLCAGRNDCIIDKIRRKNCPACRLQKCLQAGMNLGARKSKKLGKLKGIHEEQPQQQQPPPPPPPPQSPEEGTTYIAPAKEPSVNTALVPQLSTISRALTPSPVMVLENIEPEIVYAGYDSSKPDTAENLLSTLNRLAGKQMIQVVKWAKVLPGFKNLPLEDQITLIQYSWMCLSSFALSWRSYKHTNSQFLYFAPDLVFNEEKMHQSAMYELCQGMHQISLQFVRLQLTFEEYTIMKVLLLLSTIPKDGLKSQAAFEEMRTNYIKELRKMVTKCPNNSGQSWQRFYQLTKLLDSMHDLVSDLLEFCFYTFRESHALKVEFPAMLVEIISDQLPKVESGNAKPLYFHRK
Assay: Mineralocorticoid binding assay ([3H]aldosterone displacement, MR lysate)
ENDPOINT_NAME: Ki (nM)

CC1=CC(C)(C)Nc2ccc(-c3cccc(C(F)(F)F)c3)c(Cl)c21 | 12
CC1=CC(C)(C)Nc2ccc(-c3cccc(C(N)=O)c3)c(Cl)c21 | 22
CC1=CC(C)(C)Nc2c(C)cc(-c3cccc(C)c3)c(Cl)c21 | 85
CCC(=O)c1cccc(-c2cc(C)c3c(c2Cl)C(C)=CC(C)(C)N3)c1 | 18

1. Cc1cc(-c2csc(C#N)c2)c(Cl)c2c1NC(C)(C)CC2C (racemic)
2. Cc1cc(-c2cncnc2)c(Cl)c2c1NC(C)(C)CC2C (racemic)
Task item: Which entry has a larger number for Ki, 1 or 2 ? Give the chosen item's label as your response.
Reply: 2
